system: KYSE-150 esophageal carcinoma cell line; test: In vitro cell-based assay: cellular proliferation via BrdU incorporation (ELISA); parameters: species or system human; conditions: Homo sapiens, KYSE-150, 168 hours compound incubation
pIC50: −log10 of the molar value.
// reported pIC50 per item

Solved entries:
O=C(O)c1ccncc1NC[C@@H]1CCCc2cc(N(CCO)c3ccccc3)ccc21 : 6.00 to 7.00
COc1ccc2c(c1C)CCC[C@H]2CNc1cnccc1C(=O)O : 5.00 to 6.00

Then this molecule:
Task: # return pIC50 of `CN(c1ccc(Cl)cc1)c1ccc2c(c1)CCC[C@H]2CNc1cnccc1C(=O)O` (system: KYSE-150 esophageal carcinoma cell line)
Result: ≥ 7.00
